# test details: Energy level: ionization potential of spin coat film by surface analyzer AC-1, electron affinity by subtracting absorption-edge energy
# Type: physicochemical
# condition notes: spin coat film on ITO glass, surface analyzer AC-1
measured endpoint: ionization potential
# answer = value followed by unit

Please review the following examples before continuing.
- compound: "CC(C)(C)c1ccc2c(c1)c1cc(C(C)(C)C)ccc1n2-c1ccc(-c2cc(-c3ccc(-n4c5ccc(C(C)(C)C)cc5c5cc(C(C)(C)C)ccc54)cc3)cc(-c3ccc(-n4c5ccc(C(C)(C)C)cc5c5cc(C(C)(C)C)ccc54)cc3)c2)cc1"
  ionization potential: "6.2 eV"
- compound: "CC(C)(C)c1ccc(-c2nc(-c3ccc(-c4ccc5c(c4)C4(c6ccccc6-5)c5ccccc5-c5ccc(-c6ccc(-c7nc(-c8ccc(C(C)(C)C)cc8)nc(-c8ccc(C(C)(C)C)cc8)n7)cc6)cc54)cc3)nc(-c3ccc(C(C)(C)C)cc3)n2)cc1"
  ionization potential: "6.2 eV"
- compound: "CC(C)(C)c1ccc(-c2nc(-c3ccc(-c4ccccc4-c4c5ccccc5c(-c5ccccc5-c5ccc(-c6nc(-c7ccc(C(C)(C)C)cc7)nc(-c7ccc(C(C)(C)C)cc7)n6)cc5)c5ccccc45)cc3)nc(-c3ccc(C(C)(C)C)cc3)n2)cc1"
  ionization potential: "5.9 eV"
- compound: "Cc1ccc(-c2nc(-c3ccc(C)cc3)nc(-c3ccc(-c4ccc5c(c4)C4(c6ccccc6-5)c5ccccc5-c5ccc(-c6ccc(-c7nc(-c8ccc(C)cc8)nc(-c8ccc(C)cc8)n7)cc6)cc54)cc3)n2)cc1"
  ionization potential: "6.2 eV"

Prompt line: May I ask what ionization potential has been recorded for Cc1ccc2c(-c3ccccc3-c3ccc(-c4nc(-c5ccc(C(C)(C)C)cc5)nc(-c5ccc(C(C)(C)C)cc5)n4)cc3)c3ccccc3c(-c3ccccc3-c3ccc(-c4nc(-c5ccc(C(C)(C)C)cc5)nc(-c5ccc(C(C)(C)C)cc5)n4)cc3)c2c1 (single isomer, unassigned) [isomer component 1 of the compound 2] ?
Response line: 5.9 eV
